Entry source: paper PMC7721647

# test system: T1, DDX21Fl (human, UniProt Q9NR30 1-783)
# T1 sequence: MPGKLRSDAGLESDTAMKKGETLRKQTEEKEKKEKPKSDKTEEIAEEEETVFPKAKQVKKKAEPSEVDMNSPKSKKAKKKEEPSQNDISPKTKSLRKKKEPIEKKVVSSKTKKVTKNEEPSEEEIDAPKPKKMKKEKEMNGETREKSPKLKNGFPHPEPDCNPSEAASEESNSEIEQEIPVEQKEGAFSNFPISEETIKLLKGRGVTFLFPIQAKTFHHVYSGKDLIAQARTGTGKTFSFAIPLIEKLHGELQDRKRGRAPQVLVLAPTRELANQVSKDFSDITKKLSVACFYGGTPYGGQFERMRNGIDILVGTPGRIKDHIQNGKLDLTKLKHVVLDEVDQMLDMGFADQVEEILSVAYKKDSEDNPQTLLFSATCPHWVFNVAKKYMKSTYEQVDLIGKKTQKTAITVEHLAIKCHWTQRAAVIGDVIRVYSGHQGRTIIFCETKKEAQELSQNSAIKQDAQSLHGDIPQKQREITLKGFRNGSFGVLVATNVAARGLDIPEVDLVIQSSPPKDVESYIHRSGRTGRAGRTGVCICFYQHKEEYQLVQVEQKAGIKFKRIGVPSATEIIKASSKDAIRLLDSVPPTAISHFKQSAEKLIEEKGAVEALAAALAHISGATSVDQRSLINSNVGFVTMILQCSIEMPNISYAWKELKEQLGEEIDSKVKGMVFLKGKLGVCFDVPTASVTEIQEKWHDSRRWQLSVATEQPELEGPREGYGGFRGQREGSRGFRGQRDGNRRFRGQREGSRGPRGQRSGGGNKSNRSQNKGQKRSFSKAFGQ
# protocol description: fluorescence polarization; no ATP; 50 mM KCl; FP: 50 mM Tris pH 7.5, 50 mM KCl, 5 mM MgCl2, no ATP; Hill-slope fit; temperature not given in the material
# condition details: protein: recombinant; tags: N-terminal Trx-His6, cut with thrombin; chain copies: 2; label: 5'-FAM; G4
readout kind: Kd (nM)
A number alone suffices; assume nM.

[ask] Give the measured Kd of GUUGGGGCGGGCGUUGGGUUUGGGGGGACG (structured_RNA) [Q2 RNA G-quadruplex] .
[reply] 2.6
